# Experimental Details: yeast display, Sf9 membrane polyspecificity reagent, FACS + sequencing; frameworks hold sequencing errors

Residue Sequence	polyreactivity (PSR sort gate)
QVQLVESGGGLVQAGGSLRLSCAASARIFGWNAMGWYRQAPGKERELVAAISWRGGSTYYADSVKGRFTISRDNAKNTVYLQMNSLKPEDTAVYYCNALYTRYVSQWFGYWGQGTQVTVSS	high polyreactivity
QVQLVESGGGLVQAGGSLRLSCAASGSIFRVYAMGWYRQAPGKERELVAAISSSGDSTYYADSVKGRFTISRDNAKNTVYLQMNSLKPEDTAVYYCAADVKQRVKSSTMYYWGQGTQVTVSS	high polyreactivity
QVQLVESGVGLVQAGGSLRLSCAASGFLFKYNAMGWYRQAPAKERELVAAISWSGSRTYYADSVKGRFTISRDNAKNTVYLQMNSLKPEDTAVYYCNAVSWRTSRYDYWGQGTQVTVSS	high polyreactivity

* * *

# Experimental Details: yeast display, Sf9 membrane polyspecificity reagent, FACS + sequencing; frameworks hold sequencing errors
Observed Property: polyreactivity (PSR sort gate)

Known polyreactivity (PSR sort gate) results, listed for orientation:
Residue Sequence	Result
QVQLVESGGGLVQAGGSLRLSCAASGFTLYYYAMGGYRQAPGKERELVAAISYSGGTTYYADSVKGRFTISRDNAKNTVYLLMYSLKPEDTAVYYCAAGFYSYSWYVKLAYGYWGQGIQVTVSS	low polyreactivity
QVQLVESGGGLVQAGGSLRLSCAASGSTLQVNAMGWYRQATGKERELVDTISFSGGSTYYADSVKGRFTISRDNAKNTVYLQMNSLKPEDTAVYYCNADSFVSWYNQFWYQATYDYWGQGTQVTVSS	low polyreactivity
QVQLVESGGGLVQAGGSLRLSCAASGRTFRWYAMGWYRQAPGKERELVARITYSGGSTYYADSVKGRFTISRDNAKNTVYLQMNSLKPEDTAVYYCAAKRYTGSSSIYYYWGQGTQVTVSS	high polyreactivity
PVQVVESGGVLVQAGGSRRLSCAAAGGNFYGNVMGWYRQAPGKERELVADITSVSSTYYADSVKGRFTISRDNAKNTVFLQMKRLKPEDTAVYYCAPEPDHVADSHSGYDYWGQGTQVTVSS	low polyreactivity
QVQLVESGAGLVQAGGSLRLSCAASGTIFSGNAMGWYRQAPGKESELVAAISRSGGSTYYADSVKGRFTISRDNAKNTVSLQKNSLKPEDTAVYYCAAYRTHGPPRAIRFDYWGQGSQVTVSS	high polyreactivity

What does the data say about its polyreactivity (PSR sort gate)? Entry: QVPLAETGGGLVQAGGSLRLSCASSGSIYRYAMGWYRKEPGKEREFVAANTWNGGSTYYADSVKGRLTRSLDYAKNTVYLPMNSLKPEDTAVYNCAADWSYFRRHFDYWVQGTQVTVSS high polyreactivity

Then this sequence: QGQLEESGGGLVQAGGSLRLSCAASGFTFYDNAMGWYRQAPGKERELVAAISWSGGSTYADSVKGRFTISRDNAKNTVYLLMNSLKPEDTAVYYCNADAWLASGYRYDYWGQGTQVTVSA low polyreactivity

Then this sequence: QVQLVESGGGLVQAGGSLRLSCAASGRISFRILWDGIDRRLGKKGSWLPLLTNTGSTNYADSVKGRFTISRDNAKNTVYLQIHSLKPEDTAVYDCNADPTGGSSYPAYFEYDYWGQGTQVTVSS low polyreactivity

Then this sequence: QVQLVESGGGLVQAGGSLRLSCAASGSTFTGYAMGWSRQAPGKEREIVATITKRGGRTYYADSVKGRFTISRDNAKNTVYLQMNSLKPEDTAVYYCARDQGKLVVPYAYWGQGTQVTVSS high polyreactivity

Then this sequence: QVQLVESGGGLVQAGGSLRLSCAASGSIFQPYAMGWYRQAPGKERELVAAISSSGGSTTYADSVKGRFTISRDNAKNTVYLQMNSLKPEDTAVYYCAAQYRYYPEAYGMGYWGQGTQVTVSS low polyreactivity

Then this sequence: QVQLVESGGGLVQAGGSLRLSCAASGRTFNVNVMGWYRQAPGKERELVAAIRYTGGSTYADSVKGRFTISRDNAKNTVYLQMNSLKPEDTAVYYCNADTFFPFDHGMDYWGQGTQVTVSS low polyreactivity

Then this sequence: QVQLVESGGGLVQAGGSLRLTCAASGLTFGFNAMGWYRQAPGKERELVAAISSRGGSTYYADSVKGRFTISRDNAKNTVYLQMNSLKPEDTAVYYCAVRYYSPYGYWGQGTQVTVSS low polyreactivity

* * *

# Experimental Details: yeast display, Sf9 membrane polyspecificity reagent, FACS + sequencing; frameworks hold sequencing errors
Observed Property: polyreactivity (PSR sort gate)

Residue Sequence	Observed Property	Result
QVQLVESGGGLVQAGGSLRLSCAASGRIFPYYGMGWYRHAPGKERELVAAITWDSGSTYYADSVKGRFTISRDNAKNTVYLQMNSLKPEDTAVYYCAAPISFYSPAEYYYWGQGTQVTVSS	polyreactivity (PSR sort gate)	low polyreactivity
QVQLVESGGGLVQAGGSLRLSCAASGSIFGFYAMGWYRQAPGKERELVASITISGGSTYYADSVKGRFTISRDNAKNTVYLQMNSLKPEDTAVYYCAARRYWDYNYWGQGTQVTVSS	polyreactivity (PSR sort gate)	low polyreactivity
QVQLVESGGGLVQAGGSLRLSCAASGSTFGWNAMGWYRQAPGKERELVAAISRSGGRTYYADSVKGRFTISRDNAKNTVYLQMNSLKPEDTAVYYCAADRSTTGGLRGYWGQGTQVTVSS	polyreactivity (PSR sort gate)	high polyreactivity
QVQLVESGGGLVQAGGSLRLSCAASGRIFRYYAMGWYRQAPGKEREFVAAITYIGGSTYYADSVKGRFTISRDNAKNTVYLQMNSLKPEDTAVYWGQGTQVTVSS	polyreactivity (PSR sort gate)	low polyreactivity
QVQLVESGGGLVQAGGSLRLSCAASGITFKPYAMGWYRQAPGKERELVATITFRGGSTYYADSVKGRFTISRDNAKNTVYLQMNSLNPEDTAVYYCAAVTRRYVLSTFYYWGQGTQVTVSS	polyreactivity (PSR sort gate)	high polyreactivity
QVHLVESGGGLVQAGGSLRLSCAASGRIFGEYAMGWYRQAPGKERELVAAISYRGGRTYYADSVKGRFTISRDNAKNTVYLQMNSLKPEDTAVYYCAKTNRDEYDYWGQGTQVTVSS	polyreactivity (PSR sort gate)	high polyreactivity
QVQLVESGGGLVQAGGSLRLSCAASGRTFSINAMGWYSQAPGKERELVAAISYTGGSTYYADSVKGRFTISRDNAKNTVYLQMNSLKPEDTAVYYCAASSSRTYYGRYYYWGQGTQVTVSS	polyreactivity (PSR sort gate)	high polyreactivity
QVQLVESGGGLVQAGCSLRLSCAASGRIFGQYAMGWYRQAPGKEREFVAGISTTGGSTYYADSVKGRFTISRDNAKNTVYLQMNSLKPEDTAVYYFAVRINWSRWYHYYTYNYWGQGTQVTVSS	polyreactivity (PSR sort gate)	high polyreactivity
QVQLVESGGGLVQAGGSLRLSCAASGRTFAQYAMGWYRQAPGKERELVAAITKRGGTTYYADSVKGRFTISRDNAKNTVYLQMNSLKPEDTAVYYCKAGGVVPSTYYWGQGTQVTVSS	polyreactivity (PSR sort gate)	high polyreactivity
QDQLVESGGGLVQAGGSLRLSCAASGRTFYYAMGWYRQAPGKERYADSVKGRFTISRDNAKNTVYLQMNSLKPEDTAVYYCAAKVPEPPSLDESDYWGQGTQVTVSS	polyreactivity (PSR sort gate)	low polyreactivity

What does the data say about its polyreactivity (PSR sort gate)? Entry: QVQLVESGGGLVQAGGSLRLSCAASGSTLYRYAMGWYRQAPGKERELVAAISSAGSTHYADSVKGRFTISRDNAKNNVYLQMKSLKPEDTAVYYCNAKGYLHRSRYDYWGQGTQVTVSS high polyreactivity

* * *

# Experimental Details: yeast display, Sf9 membrane polyspecificity reagent, FACS + sequencing; frameworks hold sequencing errors
Observed Property: polyreactivity (PSR sort gate)

Residue Sequence	Observed Property	Result
QVQLGESGGGLVQAGGSLRLSCAASGRIFSYYAMGWYRPAPGKERELVAAISYRGSSTNYADSVKGRFTISRDNAKNTVYFQMNSLKPEDTAVYYCATKFFRTAYEYWGQGTQVTVSS	polyreactivity (PSR sort gate)	high polyreactivity
QVQLVESGGRLVQAGGSLRLRCAASGFIFGWYTMGWYRQAPGKERELVASISRSGGSTYYADSVKGRFTISRDNEKNTVYVQMNSLKPEDTAVSYCAKRSLVDAHGYWGQGTQVTVSS	polyreactivity (PSR sort gate)	high polyreactivity
QVELVESGGGLVQAGGSLRLSCAASGFTFNGTAMGWYRQAPGKDRELVAAMSRGGSPSYADSVKGRFTISRDNAKKTVYLPMNSLKPEATAVYYCAAVSYGRFRRYEYWVQGTQVTVSS	polyreactivity (PSR sort gate)	high polyreactivity

* * *

# Experimental Details: yeast display, Sf9 membrane polyspecificity reagent, FACS + sequencing; frameworks hold sequencing errors
Observed Property: polyreactivity (PSR sort gate)

Residue Sequence	polyreactivity (PSR sort gate)
QVQLVESGGGLVQAGGSLRLSCAASGSTFQSNAMGGYRQAPGKERELVAAISSSAGTTFYADSVKGRFTISRDNAKNTVYLQMNSLKPEDTAVYYCAAEYSRSYIEYDYWGQGTQVTVSS	low polyreactivity
QVQLVESGGGLVQAGGSLRLSCAASGSTFGHYAMGWYRPAPGKERELVAVISRSGARTYYADSVKGRYTISRDNAKNTVYLQMNSLKPEDTAVYYCNAGPYGGNPFDYWGQGTQVTVSS	high polyreactivity
QVQLVESGGGLVQAGGSLRLSCAASGRIFDHNAMGWYRQAPGKERELVAAINYSDDSTYYADSVKGRFTISRDNAKNTVYLQMNSLKPEDTAVYYCNADVGSEYSDKYDYWGQGTQVTVSS	low polyreactivity
QVQLVESGGGLVQAGGTLRLSCAASGYTSSLNAMRWYRQAPGKERELVARITTDGTSTYYADSVKGRFTISRDNAKNTVYLQMNSLKPEDTAVYYCNARYPAYGVRSWYPYAYYYWGQGTQVTVSS	low polyreactivity
QVQLVESGGGLVQAGGSLRLSCAASGSNKQNAMGWYRQSPGKERELLARISKYGGSTYADSVKGRFTISRDNAKNTVYLQMNSLKPEDTAVYYCNAVKRDRNHHATKCEYAYWGQGTPVTVSS	low polyreactivity

What does the data say about its polyreactivity (PSR sort gate)? Entry: QVQLVESGGGLVQAGGSLRISCAASGRTFPGNAMGCYRQAPGKERELVAAISYSGGRTYYADSVKGRFTISRDNAKNTVYLQMNSLNPEDTAVYYCNRTPYSDYVFAYDYWGQGTQVTVSS high polyreactivity

Then this sequence: QVQLVESGGGLVQAGGSLRLSCAASGLIFSRYAMGWYRQAPGKEREFVAAINWNGGRTYYADSVKGRFTISRDNAKNTVYLQMNSLKPEDTAVYYCAATWIDYYVIYAYDYWGQGTQVTVSS high polyreactivity

Then this sequence: QVQLVESGGGLVQAGGSLRLSCAASGSTFTPNAMGWYRQAPGKERELVAAIRGLNGRTYYADSVKGRFTISRDNAKNTVYLQMHSLKPEDTAVYYCAAGGYSYYFAWHDYWGQGTQVTVSS low polyreactivity

Then this sequence: QVQLVESGGGLVQAGGSLRLSCAASGSTFYYNTMGWYRQAPGKERELVAAISWRGGSTYYADSVKGRFTISRDNAKNTVYLLMNSLKPVDTAVYYCAAGWYPRSVRPFESFVGLDYWGQGTQVTVSS high polyreactivity

Then this sequence: QVQLVESGGGLVQAGGSLRLSCAASGSTFRYYVMGWYRPAPGKERELVAAITRGGSTNYADSVKGRFTISRDNAKNTVYLQMNSLKPEDTAVYYCAARGGWKRPFGYQLQYDYWGQGTQVTVSS high polyreactivity

Then this sequence: QVQLVESGGGLVQAVGSLRLSCAPSGSLFPGYAMGWYRQAPGKERELVAAITFSGGSTYYADSVKGRFTISRDYAKQSVYLPMNSLKPEDTAVYYCAAPGWYGGYPSYYYWGQGTQVTVSS low polyreactivity

Then this sequence: QGQLVESGGGLVQAGGSLRLSCAASGSIFPGYTMGWYRQAPGKERELVAVISSDGRTHYADSVKGRFTISRDNAKNTVYLQMNSLKPEDSAVYYCAAAKRAYGYVLHAFYYWGQGTQVTVSS high polyreactivity

Then this sequence: QVQLVESGGGLVQAGGSLRLSCAASGSTFRFYAMGWYRQAPGKERELLAAINGSGGSTYYADSVKGRFTISRDKAKSTVNLQMNSLKPEDTAVYYSAVLYRYGYDYWGQGTQVTVSS low polyreactivity
